The measurements presented in this section are drawn from ChEMBL document CHEMBL1201862.

# System: IGROV-1
# test-details: NCI tumour cell line growth inhibition, 48 h
Activity calls are given as the source filed them. Cut-off read from the data, not from the text of the source: active = GI50 up to about 1.1 µM and inactive = higher.
readout-label: GI50

Cc1ccc(C(=O)/C=C/c2cccc([N+](=O)[O-])c2)cc1 :: > 67.9 µM (inactive)
COc1ccc(-c2cc(=O)c3c(O)c(O)c(OC)cc3o2)cc1O :: > 100 µM (inactive)
C/C(=N/NC(=S)N1CCCCC1)c1ccccc1O :: > 41.2 µM (inactive)
CC(C)(C)c1cc2c(OC/C=C/c3ccccc3)c(c1)Cc1cc(C(C#N)(OC/C=C/c3ccccc3)OC/C=C/c3ccccc3)cc(c1OC/C=C\c1ccccc1)Cc1cc(C(C)(C)C)cc(c1OC/C=C/c1ccccc1)Cc1cc(C(C#N)(OC/C=C\c3ccccc3)OC/C=C/c3ccccc3)cc(c1OC/C=C\c1ccccc1)C2 (stereo not given) :: > 100 µM (inactive)
Cc1nc(-c2cc3c(ccc4ccccc43)oc2=O)cs1 :: 21.5 µM (inactive)
c1ccc(C2(c3ccccc3)S/C(=C3/SC(c4ccccc4)(c4ccccc4)c4ccccc43)c3ccccc32)cc1 :: > 100 µM (inactive)
Cc1nn2c(=O)c([N+](=O)[O-])c(/C=C/c3ccccc3)nc2s1 :: 5.51 µM (inactive)
O=C(N/N=C\c1ccc(Cl)cc1)Nc1cccc2ccccc12 :: 3.49 µM (inactive)
Cn1c(N/N=C/c2ccccc2)nc(-c2ccc([N+](=O)[O-])cc2)c(C#N)c1=O :: 49.3 µM (inactive)
c1ccc(CCc2cccnc2)nc1 :: > 100 µM (inactive)
